- system_tested: T1, human PD-1 (construct not stated) (human, UniProt Q15116 25-167, limits assumed)
- T1 construct: also called PD-1 analyte
- run_description: Biacore (summary table; unit from Table 7)
measurement_name: Kd (nM)
// note: answer is a bare numeric in nM

{"columns": ["binder", "unit_of_measure", "Kd"],
 "data": [
  ["10D1 murine anti-PD-1 antibody (antibody, V domains shown, Purified hybridoma antibody; also called 10D1-mIgG1) VH: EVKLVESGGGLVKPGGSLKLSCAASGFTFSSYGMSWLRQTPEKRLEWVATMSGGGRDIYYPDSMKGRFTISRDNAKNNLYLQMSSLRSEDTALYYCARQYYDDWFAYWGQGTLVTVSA VL: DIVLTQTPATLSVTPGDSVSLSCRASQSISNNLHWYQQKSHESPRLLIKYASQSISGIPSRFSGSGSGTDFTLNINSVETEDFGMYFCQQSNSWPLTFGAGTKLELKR", "nM", 0.0623]
]}

Proceed to the following item.
Would you kindly share the measured Kd for 6E1 murine anti-PD-1 antibody (antibody, V domains shown, Purified hybridoma antibody; also called 6E1-mIgG1) VH: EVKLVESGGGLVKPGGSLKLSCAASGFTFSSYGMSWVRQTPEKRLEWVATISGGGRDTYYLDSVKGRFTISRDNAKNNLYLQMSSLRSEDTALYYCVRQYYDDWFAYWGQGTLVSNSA VL: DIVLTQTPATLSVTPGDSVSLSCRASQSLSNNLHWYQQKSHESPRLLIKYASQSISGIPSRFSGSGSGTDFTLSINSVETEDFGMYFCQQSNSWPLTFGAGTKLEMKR ? 0.0255
